Assayed System: Inadl_6, Q8NI35
Sequence (Q8NI35 1058-1167): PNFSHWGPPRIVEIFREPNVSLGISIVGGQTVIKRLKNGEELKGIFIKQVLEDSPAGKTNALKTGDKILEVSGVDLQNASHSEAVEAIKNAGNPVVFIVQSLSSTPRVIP
Protocol Details: holdup assay
Parameters: key: below the threshold = too weak to quantify, mostly under pKd 3.1 to 4
Test Parameters: plain residues with an end cap or a label only (N-terminal biotin on a linker: ado-ado)
Measure Name: pKd

Example binders with recorded pKd:
[[record]]
binder = "SRPHTNETSL [MCC, P23508]"
measure_name = "pKd"
result = 3.83

[[record]]
binder = "IQISELETNV [SLC1A7, O00341]"
measure_name = "pKd"
result = 4.04

[[record]]
binder = "QLGSPTADLA [SIPA1, Q96FS4]"
measure_name = "pKd"
result = "below the threshold"

[[record]]
binder = "FLVTEFNVML [DFNB31, Q9P202]"
measure_name = "pKd"
result = "below the threshold"

[[record]]
binder = "LLQEEWETVM [PTH1R, Q03431]"
measure_name = "pKd"
result = 4.12

[[record]]
binder = "SSSVNVSSNL [CXCR1, P25024]"
measure_name = "pKd"
result = "below the threshold"

[[record]]
binder = "DLLGGGSDSI [TNRC6B, Q9UPQ9]"
measure_name = "pKd"
result = "below the threshold"

[[record]]
binder = "FVFESRKEIL [TBPL1, P62380]"
measure_name = "pKd"
result = "below the threshold"


State the recorded pKd for every item in the following list.
1. PALKNGQYWV [CSPG4, Q6UVK1]
2. SKQFDKNAYV [CLDN10, P78369]
3. KIEDVEITLV [FCHSD2, O94868]
4. LPPPESESKV [KCNJ9, Q92806]
5. DAAHHDESNC [FMNL3, Q8IVF7]
6. ELKAEDEVQI [DCHS2, Q6V1P9]

["below the threshold", "below the threshold", 4.23, "below the threshold", "below the threshold", "below the threshold"]

State the recorded pKd for every item in the following list.
1. QKASRNESTF [POLR1D, P0DPB6]
2. GNDPDRGTSI [GRID2, O43424]

1. below the threshold
2. below the threshold
